Test system: circulatory insufficiency model of rats induced by injection of lauric-acid into their femoral artery
Test: Circulatory insufficiency model induced by lauric-acid in rats (lesion index)
Assay type: in vivo, rat
Parameters: key: summed toe lesion grades, +5 if heel reached; max 25 points
Details: male Wistar rats; 30 mg/kg multiple oral dosing (1 h prior to and 3 h after lauric-acid, then twice daily); 3 days after lauric-acid injection; average, max 25 points
# key: entry, value: Lesion Index after 3 days
No unit in the answer, only the number.

{"compound": "CCCCCCCCOc1c(O)c2c(OCC(O)CO)cccc2oc1=O (centres unmarked)", "Lesion Index after 3 days": 2.7}
{"compound": "CCCCC(CC)Oc1c(O)c2c(OCCO)cccc2oc1=O (centres unmarked)", "Lesion Index after 3 days": 3.5}

Query: Tell me Lesion Index after 3 days reported for CCCCCCCCOc1c(O)c2cccc(OCCCC(=O)O)c2oc1=O
Result: 2.6

Query: Tell me Lesion Index after 3 days reported for CCCCCCC=COc1c(O)c2cccc(O)c2oc1=O
Result: 3.3

Query: Tell me Lesion Index after 3 days reported for CCCCCCCCOc1c(O)c2ccc(OCCC(O)CO)cc2oc1=O (centres unmarked)
Result: 2.9

Query: Tell me Lesion Index after 3 days reported for CCCCCCOc1c(O)c2c(O)cccc2oc1=O
Result: 2.5

Query: Tell me Lesion Index after 3 days reported for CCCCCOc1c(O)c2ccc(O)cc2oc1=O
Result: 2.6

Query: Tell me Lesion Index after 3 days reported for CC(C)CCCOc1c(O)c2cccc(OCCO)c2oc1=O
Result: 2.5

Query: Tell me Lesion Index after 3 days reported for CCCCCCOc1c(O)c2ccc(OCCO)cc2oc1=O
Result: 2.7

Query: Tell me Lesion Index after 3 days reported for CCCCOc1c(O)c2cccc(O)c2oc1=O
Result: 3.6

Query: Tell me Lesion Index after 3 days reported for CCCCCCOc1c(O)c2cc(OCCC(O)CO)ccc2oc1=O (centres unmarked)
Result: 2.9
